This collection of values is drawn from patent US7521047.

- target of assay: T1, human MHC class II DR protein (DRA*0101/DRB1*0401), purified from PRIESS cells (human, UniProt P01903 26-254; P01911 30-266, limits assumed)
- T1 construct: mature; also called HLA-DR protein; MHCII
- T1 MHC II alpha: not shown
- T1 MHC II beta: not shown
- assay notes: SPR (BIAcore), MHCII on CM5 chip
measured attribute: koff

Req: Name the recorded koff of the binder listed here: MS-GPC-8-27-7 Fab (Fab, V domains shown, Fab: VH-CH1 with FLAG tag and STREP tag II, VL-CL; VH residue 1 is Q in Fab) VH: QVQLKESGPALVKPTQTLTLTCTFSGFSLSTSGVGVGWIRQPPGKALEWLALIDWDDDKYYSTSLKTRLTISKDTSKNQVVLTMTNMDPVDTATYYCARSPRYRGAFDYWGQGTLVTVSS VL: DIVLTQPPSVSGAPGQRVTISCSGSESNIGNNYVGWYQQLPGTAPKLLIYDNNQRPSGVPDRFSGSKSGTSASLAITGLQSEDEADYYCQSYDMNVHVFGGGTKLTVLG
Resp: 0.00057 s⁻¹

Req: Name the recorded koff of the binder listed here: MS-GPC-8-6-27 Fab (Fab, V domains shown, Fab: VH-CH1 with FLAG tag and STREP tag II, VL-CL; VH residue 1 is Q in Fab) VH: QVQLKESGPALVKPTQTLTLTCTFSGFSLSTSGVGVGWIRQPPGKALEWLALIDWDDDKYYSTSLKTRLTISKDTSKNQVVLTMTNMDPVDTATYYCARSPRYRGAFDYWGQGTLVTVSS VL: DIVLTQPPSVSGAPGQRVTISCSGSDSNIGANYVTWYQQLPGTAPKLLIYDNNQRPSGVPDRFSGSKSGTSASLAITGLQSEDEADYYCQSYDYDHYVFGGGTKLTVLG
Resp: 0.0011 s⁻¹

Req: Name the recorded koff of the binder listed here: MS-GPC-8-6-47 Fab (Fab, V domains shown, Fab: VH-CH1 with FLAG tag and STREP tag II, VL-CL; VH residue 1 is Q in Fab) VH: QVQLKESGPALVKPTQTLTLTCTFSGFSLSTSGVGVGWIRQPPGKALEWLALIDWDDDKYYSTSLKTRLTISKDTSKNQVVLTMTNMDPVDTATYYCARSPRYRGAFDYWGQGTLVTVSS VL: DIVLTQPPSVSGAPGQRVTISCSGSESNIGSNYVSWYQQLPGTAPKLLIYDNNQRPSGVPDRFSGSKSGTSASLAITGLQSEDEADYYCQSYDYDHYVFGGGTKLTVLG
Resp: 0.00062 s⁻¹

Req: Name the recorded koff of the binder listed here: MS-GPC-8-6-13 Fab (Fab, V domains shown, Fab: VH-CH1 with FLAG tag and STREP tag II, VL-CL; VH residue 1 is Q in Fab; also called 305D3) VH: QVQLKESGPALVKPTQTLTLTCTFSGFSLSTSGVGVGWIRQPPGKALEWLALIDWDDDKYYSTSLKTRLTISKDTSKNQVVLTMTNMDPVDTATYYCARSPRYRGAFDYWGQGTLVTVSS VL: DIVLTQPPSVSGAPGQRVTISCSGSESNIGANYVTWYQQLPGTAPKLLIYDNNQRPSGVPDRFSGSKSGTSASLAITGLQSEDEADYYCQSYDYDHYVFGGGTKLTVLG
Resp: 0.00055 s⁻¹
